- Tested on: IGROV-ET
- protocol description: SRB colorimetric cell growth inhibition assay, IGROV-ET (ET-743 resistant)
- Type: cell-based
- run conditions: Homo sapiens, IGROV-ET; GI=growth inhibition; read-out: GI50 IGROV-ET
attribute measured: GI50 (nM)
Kindly answer with a numeric value in nM, unit omitted.

Known GI50 results, listed for orientation:
COc1cc(-c2c3n(c4c(=O)oc5cc(OC(=O)[C@H](C)N)c(OC)cc5c24)CCc2c-3cc(OC)c(OC)c2OC(=O)[C@H](C)N)ccc1OC(=O)[C@H](C)N :: 2690
COc1cc(-c2c3n(c4c(=O)oc5cc(OC(=O)[C@@H](N)C(C)C)c(OC)cc5c24)CCc2c-3cc(OC)c(OC)c2OC(=O)[C@@H](N)C(C)C)ccc1OC(=O)[C@@H](N)C(C)C :: 689

Assign GI50 to the following record: COc1cc(-c2c3c4cc(OC)c(O)cc4oc(=O)c3n3ccc4c(N)cccc4c23)ccc1O 3160
